target: HIV-1 94UG103 envelope glycoprotein (Env) (HIV-1); experiment: cell-based or functional assay
Below: a set of entries, each annotated with reported IC50 neutralization.
# output: bare number, implied unit µg/mL

>>> observed_measurement("PGT-126 (antibody, V domains shown) VH: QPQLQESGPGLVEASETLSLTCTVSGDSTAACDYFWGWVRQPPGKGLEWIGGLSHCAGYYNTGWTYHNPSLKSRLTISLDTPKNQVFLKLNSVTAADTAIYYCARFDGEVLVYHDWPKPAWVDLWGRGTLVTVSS VL: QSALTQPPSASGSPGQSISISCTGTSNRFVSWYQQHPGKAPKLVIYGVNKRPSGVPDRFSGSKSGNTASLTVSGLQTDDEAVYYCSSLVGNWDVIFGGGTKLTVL")
0.0091

Now consider a different binder.
Provide one value: measured IC50 neutralization of PGT-125 (antibody, V domains shown) VH: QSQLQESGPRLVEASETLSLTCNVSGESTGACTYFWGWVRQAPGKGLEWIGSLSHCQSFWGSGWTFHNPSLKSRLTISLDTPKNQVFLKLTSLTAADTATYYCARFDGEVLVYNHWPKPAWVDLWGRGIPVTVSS VL: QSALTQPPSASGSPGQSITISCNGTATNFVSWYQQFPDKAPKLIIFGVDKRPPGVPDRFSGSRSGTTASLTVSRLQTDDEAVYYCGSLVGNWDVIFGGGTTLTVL
0.0124
